measurement description: Equilibrium solubility by HPLC, Form C, ambient temperature
Type: physicochemical
condition details: Lecithin 61 mg/mL (100× cmc), aqueous with cosolvent or surfactant or cyclodextrin, thermodynamic from solid, Lecithin; 61 mg/mL (100× cmc); read-out: Solubility by HPLC
measured attribute: solubility

# get_value(readout='solubility', item= CC(=O)N1CCc2c(C(=O)N3CCC(c4ccc(F)c(F)c4C(F)(F)F)CC3)n[nH]c2C1 [Compound 1] )
53 µg/mL

###

measurement description: Equilibrium solubility by HPLC, Form C, ambient temperature
Type: physicochemical
condition details: pH 6.8 buffer, pH 6.8, aqueous buffer, thermodynamic from solid, pH 6.8 buffer; Final pH: 6.50; read-out: Solubility by HPLC
measured attribute: solubility (µg/mL)
Give bare numbers, in µg/mL.

What value of solubility has been reported for the following compound? CC(=O)N1CCc2c(C(=O)N3CCC(c4ccc(F)c(F)c4C(F)(F)F)CC3)n[nH]c2C1
0.8

###

measurement description: Equilibrium solubility by HPLC, Form C, ambient temperature
Format: physicochemical
condition details: Tween 80, 1.2 mM (100× CMC), aqueous with cosolvent or surfactant or cyclodextrin, thermodynamic from solid, Tween 80; 1.2 mM (100× cmc); read-out: Solubility by HPLC
measured attribute: solubility (mg/mL)
One number for each entry, in mg/mL.

So what's the measured solubility for this one? CC(=O)N1CCc2c(C(=O)N3CCC(c4ccc(F)c(F)c4C(F)(F)F)CC3)n[nH]c2C1
0.56

###

measurement description: Equilibrium solubility by HPLC, Form C, ambient temperature
Type: physicochemical
condition details: Captex 355, EP/NF, oil or lipid, thermodynamic from solid, Captex 355, EP/NF; read-out: Solubility by HPLC
measured attribute: solubility (µg/mL)
Numbers only, in µg/mL.

What measured solubility goes with CC(=O)N1CCc2c(C(=O)N3CCC(c4ccc(F)c(F)c4C(F)(F)F)CC3)n[nH]c2C1 ?
49

###

measurement description: Equilibrium solubility by HPLC, Form C, ambient temperature
Format: physicochemical
condition details: Sodium Lauryl Sulfate 8.2 mM (cmc), aqueous with cosolvent or surfactant or cyclodextrin, thermodynamic from solid, Sodium Lauryl Sulfate; 8.2 mM (cmc); read-out: Solubility by HPLC
measured attribute: solubility (µg/mL)
Give bare numbers, in µg/mL.

For the molecule CC(=O)N1CCc2c(C(=O)N3CCC(c4ccc(F)c(F)c4C(F)(F)F)CC3)n[nH]c2C1 , what solubility is on record?
150

###

measurement description: Estimated solubility by solvent aliquot addition, visual inspection
Assay type: physicochemical
condition details: tetrahydrofuran, organic solvent or mixture, thermodynamic from solid
measured attribute: solubility (µg/mL)
Answers are plain numbers, in µg/mL.

Which measured solubility value corresponds to CC(=O)N1CCc2c(C(=O)N3CCC(c4ccc(F)c(F)c4C(F)(F)F)CC3)n[nH]c2C1 ?
6000

###

measurement description: Non-sink dissolution of unmicronized and micronized Form C in SLS in water
Type: physicochemical
condition details: aqueous with cosolvent or surfactant or cyclodextrin; 0.36% SLS in water; calculated from SLS concentration vs solubility profile; read-out: solubility of the API
measured attribute: solubility (mg/mL)
Numbers only, in mg/mL.

Fill blank: measured solubility of the compound CC(=O)N1CCc2c(C(=O)N3CCC(c4ccc(F)c(F)c4C(F)(F)F)CC3)n[nH]c2C1 is ____.
0.445
